Form field: neutralization IC50 (one value per entry).
biological target: Env of HIV-1 strain R1166.c1 (HIV-1); test: cell-based or functional assay
State just the number; it will be interpreted in µg/mL.

Recorded results for 2 binders are shown here.
Binder: γ3κ11 (antibody, V domains shown) VH: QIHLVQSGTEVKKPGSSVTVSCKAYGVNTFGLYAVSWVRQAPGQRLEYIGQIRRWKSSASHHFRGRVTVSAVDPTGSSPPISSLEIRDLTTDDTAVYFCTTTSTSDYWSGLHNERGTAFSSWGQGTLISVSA VL: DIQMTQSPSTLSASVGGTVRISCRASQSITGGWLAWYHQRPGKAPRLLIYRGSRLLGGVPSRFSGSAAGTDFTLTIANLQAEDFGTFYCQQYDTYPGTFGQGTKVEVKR
Units: µg/mL
neutralization IC50: 1.79
//
Binder: γ15κ18 (antibody, V domains shown) VH: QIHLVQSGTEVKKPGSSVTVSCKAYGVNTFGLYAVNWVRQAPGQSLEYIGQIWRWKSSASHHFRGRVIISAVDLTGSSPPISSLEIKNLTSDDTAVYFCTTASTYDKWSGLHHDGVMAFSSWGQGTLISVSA VL: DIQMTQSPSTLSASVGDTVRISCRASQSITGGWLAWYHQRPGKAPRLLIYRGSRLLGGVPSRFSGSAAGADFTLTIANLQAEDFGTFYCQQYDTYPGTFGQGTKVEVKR
Units: µg/mL
neutralization IC50: 1.99

Exercise: Bench note: what neutralization IC50 did 8ANC3484 (antibody, V domains shown) VH: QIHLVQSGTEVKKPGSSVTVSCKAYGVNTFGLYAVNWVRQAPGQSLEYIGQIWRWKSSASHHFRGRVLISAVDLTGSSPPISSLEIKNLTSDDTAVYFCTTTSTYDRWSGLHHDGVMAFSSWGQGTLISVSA VL: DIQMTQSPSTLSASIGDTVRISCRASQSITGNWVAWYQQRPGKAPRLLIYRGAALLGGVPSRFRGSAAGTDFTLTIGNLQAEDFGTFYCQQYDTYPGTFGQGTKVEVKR show?
Key: 1.03
